This collection of values is drawn from PubChem BioAssay (NCATS).

# Test Name: qHTS assay to identify small molecule inhibitors of chordoma cells - UCH-1 (AID 1259355); note: nearly all actives have a fitted effect of over 55% in size
# Condition Context: UCH-1 chordoma viability, CellTiter-Glo, 48 h, combination, with auranofin plus four topoisomerase inhibitors; series mostly up to 46.1 µM
Results filed as inconclusive are left out. Active and inactive are the calls of the source. Calls come from the whole dose curve; as a rule, active = well fitted cell-killing curve with a large enough effect; inconclusive = small, poorly fitted or top-dose-only effect, or effect the other way; inactive = no such curve, though single readings can be large or run the other way.
Property Label: outcome

CCN(CC)CCOC(=O)C(Cc1cccc2ccccc12)CC1CCCO1 (centres undefined) : inactive
CC(=O)O[C@]1(C(C)=O)CC[C@H]2[C@@H]3C=C(C)C4=CC(=O)CC[C@]4(C)[C@H]3CC[C@@]21C : inactive
CCCN(CCc1cccs1)[C@H]1CCc2c(O)cccc2C1 : inactive
CCCCCCCCCCCCCCC[C@H](O)[C@@H](N)CO : inactive
CCC(Cc1c(I)cc(I)c(N)c1I)C(=O)O (centres undefined) : inactive

Fill in: outcome of `Cc1c(-c2ccccc2)oc2c(C(=O)OCCN3CCCCC3)cccc2c1=O` is ___ inactive
